# Test system: rodent lifetime carcinogenesis bioassay, tumor incidence TD50
# method_description: carcinogenic potency in animals, long-term in vivo studies, CPDB compilation (AID 1745844)
# experimental_context: mouse; strain B6C3F1; females; in drinking water; site: liver; lesion: hepatoblastoma; dosed 104 weeks; study length 104 weeks
property_label: TD50

`c1ccncc1` has a reported TD50 of 132 mg/kg/day

* * *

# Tested on: rodent lifetime carcinogenesis bioassay, tumor incidence TD50
# method_description: carcinogenic potency in animals, long-term in vivo studies, CPDB compilation (AID 1745844)
# experimental_context: mouse; strain B6C3F1; males; inhaled; site: liver; lesion: hemangioma; dosed 95 weeks; study length 95 weeks
property_label: TD50

`FC(F)=C(F)F` has a reported TD50 of 308 mg/kg/day

* * *

# Test system: rodent lifetime carcinogenesis bioassay, tumor incidence TD50
# method_description: carcinogenic potency in animals, long-term in vivo studies, CPDB compilation (AID 1745844)
# experimental_context: rat; strain Fischer 344; males; by gavage; site: thyroid gland; lesion: follicular-cell adenoma + follicular-cell carcinoma; dosed 104 weeks; study length 104 weeks
property_label: TD50 (mg/kg/day)
Answers are plain numbers, in mg/kg/day.

`O=P(OCCCl)(OCCCl)OCCCl` has a reported TD50 of 338

* * *

# Tested on: rodent lifetime carcinogenesis bioassay, tumor incidence TD50
# method_description: carcinogenic potency in animals, long-term in vivo studies, CPDB compilation (AID 1745844)
# experimental_context: rat; strain Fischer 344; females; in feed; site: all sites; lesion: hemangiosarcoma; dosed 78 weeks; study length 106 weeks
property_label: TD50

`[O-]/[N+](=N\O)c1ccccc1` has a reported TD50 of 17.4 mg/kg/day

* * *

# Test system: rodent lifetime carcinogenesis bioassay, tumor incidence TD50
# method_description: carcinogenic potency in animals, long-term in vivo studies, CPDB compilation (AID 1745844)
# experimental_context: mouse; strain B6C3F1; males; in feed; site: thyroid gland; lesion: adenocarcinoma, NOS + follicular-cell carcinoma; dosed 78 weeks; study length 93 weeks
property_label: TD50

`CCOc1ccc(NC(C)=O)cc1N` has a reported TD50 of 4020 mg/kg/day

* * *

# System: rodent lifetime carcinogenesis bioassay, tumor incidence TD50
# method_description: carcinogenic potency in animals, long-term in vivo studies, CPDB compilation (AID 1745844)
# experimental_context: mouse; strain C57BL; females; by gavage; site: liver; lesion: malignant tumor; dosed 50 weeks; study length 72 weeks
property_label: TD50 (mg/kg/day)
Numbers only, in mg/kg/day.

`CN(C)N=O` has a reported TD50 of 0.429

* * *

# Tested on: rodent lifetime carcinogenesis bioassay, tumor incidence TD50
# method_description: carcinogenic potency in animals, long-term in vivo studies, CPDB compilation (AID 1745844)
# experimental_context: mouse; strain Charles River CD1; females; in drinking water; site: all sites; lesion: hemangioma; dosed 52 weeks; study length 52 weeks
property_label: TD50 (mg/kg/day)
Answers are plain numbers, in mg/kg/day.

`CN(C)N` has a reported TD50 of 39.7

* * *

# System: rodent lifetime carcinogenesis bioassay, tumor incidence TD50
# method_description: carcinogenic potency in animals, long-term in vivo studies, CPDB compilation (AID 1745844)
# experimental_context: rat; strain Non-inbred; both sexes; in feed; site: liver; lesion: hepatoma; dosed 143 weeks; study length 143 weeks
Give measured TD50 for each item. Keep answers brief.

Cc1cc(C)c(S(=O)(=O)O)cc1N=Nc1cc(S(=O)(=O)O)c2ccccc2c1O    49500 mg/kg/day

TD50 for rodent lifetime carcinogenesis bioassay, tumor incidence TD50 with input `O=S(=O)(O)c1ccc2c(N=Nc3ccc(S(=O)(=O)O)c4ccccc34)c(O)c(S(=O)(=O)O)cc2c1` equals 49500 mg/kg/day

* * *

# Test system: rodent lifetime carcinogenesis bioassay, tumor incidence TD50
# method_description: carcinogenic potency in animals, long-term in vivo studies, CPDB compilation (AID 1745844)
# experimental_context: rat; strain Sprague-Dawley; females; in feed; site: nasal cavity; lesion: squamous-cell carcinoma; dosed 78 weeks; study length 104 weeks
property_label: TD50

`CCOc1ccc(NC(C)=O)cc1` has a reported TD50 of 48000 mg/kg/day

* * *

# Test system: rodent lifetime carcinogenesis bioassay, tumor incidence TD50
# method_description: carcinogenic potency in animals, long-term in vivo studies, CPDB compilation (AID 1745844)
# experimental_context: mouse; strain AP Alderly Park; males; several routes; site: lung; lesion: one or several types; types not named; dosed 78 weeks; study length 78 weeks
Calls of active or inactive are those of the source. How the calls were made is not given here.
property_label: TD50

CC(=O)Nc1ccc(OCC(O)CNC(C)C)cc1 (stereo unspecified) has a reported TD50 of 383 mg/kg/day (inactive)

* * *

# Test system: rodent lifetime carcinogenesis bioassay, tumor incidence TD50
# method_description: carcinogenic potency in animals, long-term in vivo studies, CPDB compilation (AID 1745844)
# experimental_context: rat; strain CFE; females; in feed; site: liver; lesion: nodular hyperplasia; dosed 104 weeks; study length 104 weeks
property_label: TD50 (mg/kg/day)
Give bare numbers, in mg/kg/day.

`Cc1ccc(N=Nc2c(O)c(S(=O)(=O)O)cc3cc(S(=O)(=O)O)ccc23)c(C)c1` has a reported TD50 of 704

* * *

# System: rodent lifetime carcinogenesis bioassay, tumor incidence TD50
# method_description: carcinogenic potency in animals, long-term in vivo studies, CPDB compilation (AID 1745844)
# experimental_context: rat; strain Sprague-Dawley; females; in feed; site: urinary bladder; lesion: papillary carcinoma; dosed 26 weeks; study length 70 weeks
property_label: TD50

`O=CNc1nc(-c2ccc([N+](=O)[O-])o2)cs1` has a reported TD50 of 48.6 mg/kg/day

* * *

# Tested on: rodent lifetime carcinogenesis bioassay, tumor incidence TD50
# method_description: carcinogenic potency in animals, long-term in vivo studies, CPDB compilation (AID 1745844)
# experimental_context: rat; strain Donryu; females; in drinking water; site: digestive tract; lesion: several types; types named in the paper; dosed 76 weeks; study length 76 weeks
property_label: TD50

TD50 for rodent lifetime carcinogenesis bioassay, tumor incidence TD50 with input `CC(C)CN(N=O)C(N)=O` equals 4.73 mg/kg/day

* * *

# Tested on: rodent lifetime carcinogenesis bioassay, tumor incidence TD50
# method_description: carcinogenic potency in animals, long-term in vivo studies, CPDB compilation (AID 1745844)
# experimental_context: mouse; strain B6C3F1; females; in feed; site: lung; lesion: adenoma; dosed 80 weeks; study length 90 weeks
property_label: TD50 (mg/kg/day)
Give bare numbers, in mg/kg/day.

`Cc1c([N+](=O)[O-])c(C)c([N+](=O)[O-])c(C(C)(C)C)c1[N+](=O)[O-]` has a reported TD50 of 1630

* * *

# Tested on: rodent lifetime carcinogenesis bioassay, tumor incidence TD50
# method_description: carcinogenic potency in animals, long-term in vivo studies, CPDB compilation (AID 1745844)
# experimental_context: mouse; strain B6AKF1; males; oral dosing; site: Harderian gland; lesion: adenoma; dosed 72 weeks; study length 72 weeks
property_label: TD50 (mg/kg/day)
Answers are plain numbers, in mg/kg/day.

`CCOC(N)=O` has a reported TD50 of 35.8

* * *

# Test system: rodent lifetime carcinogenesis bioassay, tumor incidence TD50
# method_description: carcinogenic potency in animals, long-term in vivo studies, CPDB compilation (AID 1745844)
# experimental_context: rat; strain Fischer 344; males; in drinking water; site: central nervous system; lesion: glial tumors (oligodendroglioma and astrocytoma); dosed 107 weeks; study length 107 weeks
property_label: TD50

`C=CC(N)=O` has a reported TD50 of 48.9 mg/kg/day

* * *

# System: rodent lifetime carcinogenesis bioassay, tumor incidence TD50
# method_description: carcinogenic potency in animals, long-term in vivo studies, CPDB compilation (AID 1745844)
# experimental_context: mouse; strain Swiss; males; in drinking water; site: oral cavity; lesion: squamous-cell carcinoma; dosed 78 weeks; study length 135 weeks
property_label: TD50 (mg/kg/day)
One number for each entry, in mg/kg/day.

TD50 for rodent lifetime carcinogenesis bioassay, tumor incidence TD50 with input `C=COC(C)=O` equals 9330

* * *

# Tested on: rodent lifetime carcinogenesis bioassay, tumor incidence TD50
# method_description: carcinogenic potency in animals, long-term in vivo studies, CPDB compilation (AID 1745844)
# experimental_context: rat; strain F344/DuCrj; females; in feed; site: clitoral gland; lesion: one or several types; types not named; dosed 67 weeks; study length 67 weeks
property_label: TD50

`Cc1cccn2c1nc1ccc(N)nc12` has a reported TD50 of 56.1 mg/kg/day

* * *

# Tested on: rodent lifetime carcinogenesis bioassay, tumor incidence TD50
# method_description: carcinogenic potency in animals, long-term in vivo studies, CPDB compilation (AID 1745844)
# experimental_context: mouse; strain B6C3F1; males; in feed; site: lung; lesion: carcinoma; dosed 104 weeks; study length 104 weeks
Activity calls are given as the source filed them. How the calls were made is not given here.
property_label: TD50

C[C@@H]1CCC[C@H](C)N1CCCC(O)(c1ccccc1)c1ccccn1 (stereo partly specified) has a reported TD50 of 4040 mg/kg/day (inactive)
